target: Factor X, P00742
Sequence (P00742 whole entry, looked up): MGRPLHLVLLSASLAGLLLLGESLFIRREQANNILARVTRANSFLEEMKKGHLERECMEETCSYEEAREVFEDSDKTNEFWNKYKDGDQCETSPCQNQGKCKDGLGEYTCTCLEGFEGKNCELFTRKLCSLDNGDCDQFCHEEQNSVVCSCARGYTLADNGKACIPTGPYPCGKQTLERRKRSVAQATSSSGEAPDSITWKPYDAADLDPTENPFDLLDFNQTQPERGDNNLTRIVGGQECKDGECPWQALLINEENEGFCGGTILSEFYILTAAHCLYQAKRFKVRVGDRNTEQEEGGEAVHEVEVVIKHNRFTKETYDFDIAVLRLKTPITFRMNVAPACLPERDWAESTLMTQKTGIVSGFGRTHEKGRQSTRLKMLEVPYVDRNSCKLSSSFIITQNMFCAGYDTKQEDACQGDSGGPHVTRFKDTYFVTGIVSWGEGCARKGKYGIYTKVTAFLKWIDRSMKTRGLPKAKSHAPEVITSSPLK
VALUE_KIND: kcat/KM
Express your answer as a number followed by its unit.

Noted for FIXa-R318Y/R338E/E410S (protein) chain 1: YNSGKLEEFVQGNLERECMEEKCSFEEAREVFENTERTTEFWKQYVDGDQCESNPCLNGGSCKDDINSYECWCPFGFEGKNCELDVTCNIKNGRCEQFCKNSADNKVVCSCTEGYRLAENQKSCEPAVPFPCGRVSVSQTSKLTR chain 2: VVGGEDAKPGQFPWQVVLNGKVDAFCGGSIVNEKWIVTAAHCVETGVKITVVAGEHNIEETEHTEQKRNVIRIIPHHNYNAAINKYNHDIALLELDEPLVLNSYVTPICIADKEYTNIFLKFGSGYVSGWGRVFHKGYSALVLQYLRVPLVDRATCLESTKFTIYNNMFCAGFHEGGRDSCQGDSGGPHVTEVEGTSFLTGIISWGEECAMKGKYGIYTKVSRYVNWIKSKTKLT : its kcat/KM reads 3.3e+08 M⁻¹ s⁻¹

Each recorded value in this set is attributed to patent US20210238260.
